Molecular target: Estrogen receptor (Homo sapiens) (UniProt P03372)
Sequence (whole entry): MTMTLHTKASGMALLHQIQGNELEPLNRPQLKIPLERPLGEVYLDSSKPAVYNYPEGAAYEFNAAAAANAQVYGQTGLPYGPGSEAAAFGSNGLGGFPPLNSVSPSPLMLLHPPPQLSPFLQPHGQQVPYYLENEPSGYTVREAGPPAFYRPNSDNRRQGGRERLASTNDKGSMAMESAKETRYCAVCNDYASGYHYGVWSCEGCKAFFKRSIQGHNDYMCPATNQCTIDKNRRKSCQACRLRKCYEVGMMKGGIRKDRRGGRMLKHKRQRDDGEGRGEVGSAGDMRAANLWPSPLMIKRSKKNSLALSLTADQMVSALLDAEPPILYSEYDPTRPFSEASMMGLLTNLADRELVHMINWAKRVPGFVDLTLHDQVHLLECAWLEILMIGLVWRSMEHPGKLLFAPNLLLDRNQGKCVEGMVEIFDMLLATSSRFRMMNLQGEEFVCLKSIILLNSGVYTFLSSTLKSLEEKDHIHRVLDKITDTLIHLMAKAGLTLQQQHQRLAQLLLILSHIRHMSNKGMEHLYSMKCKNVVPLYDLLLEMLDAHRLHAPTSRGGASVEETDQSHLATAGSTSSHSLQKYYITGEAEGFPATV
Settings: at 3 µM
Description: Antagonist activity at human Gal4-ERalpha assessed as inhibition of 17beta-estradiol-induced effect at 3 uM by reporter gene assay
Quick reference for inhibition among some compounds
assay.endpoint: inhibition

>>> assay_result("Oc1ccc(Cc2ccc(O)cc2)cc1")
"35%"
>>> assay_result("CC(C)(c1ccc(O)cc1)c1ccc(O)cc1")
"38%"
>>> assay_result("Cc1cc(C(C)(C)c2ccc(O)cc2)ccc1O")
"48%"
>>> assay_result("Cc1cc(Cc2ccc(O)c(C)c2)ccc1O")
"26%"

* * *

molecular target: Estrogen receptor (Homo sapiens); test: Antagonist activity at human Gal4-ERalpha assessed as inhibition of 17beta-estradiol-induced effect by reporter gene assay
Property: IC50; scope: individual compounds
assay.endpoint: IC50

>>> assay_result("CCCCC(CCCC)(c1ccc(O)c(CC)c1)c1ccc(O)c(CC)c1")
"2900 nM"
>>> assay_result("Oc1ccc(C2(c3ccc(O)cc3)CCCCC2)cc1")
"520 nM"
>>> assay_result("CCC(CC)(c1ccc(O)c(C)c1)c1ccc(O)c(C)c1")
"25 nM"
>>> assay_result("CCCCC(CCCC)(c1ccc(O)cc1)c1ccc(O)cc1")
"79 nM"
>>> assay_result("CC[Si](CC)(c1ccc(O)c(C)c1)c1ccc(O)c(C)c1")
"72 nM"
>>> assay_result("CCCC(CCC)(c1ccc(O)cc1)c1ccc(O)cc1")
"99 nM"
>>> assay_result("Oc1ccc(C2(c3ccc(O)cc3)CCCC2)cc1")
"170 nM"
>>> assay_result("CCC(CC)(c1ccc(O)cc1)c1ccc(O)cc1")
"86 nM"
>>> assay_result("Cc1cc(C2(c3ccc(O)c(C)c3)CCCC2)ccc1O")
"84 nM"
>>> assay_result("CCC(CC)(c1cc(C)c(O)c(C)c1)c1cc(C)c(O)c(C)c1")
"74 nM"

Entry source: ChEMBL document CHEMBL2401681
